Below: a set of entries, each annotated with reported IC50.
Test system: 253994-281-T-J1-PDC KRAS-mutant spheroids with HUVEC/MSC, viability;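 also: spheroids exposed to agents for seven days before readout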
Procedure summary: Anticancer human tumor 253994-281-T-J1-PDC patient-derived colorectal carcinoma cell line growth inhibition [KRAS2]
Run parameters: curve of first compound; second compound 0.316 µM
Quick note: give the figure in µM, leave out the unit.

Record excerpt, results attached:
{"Molecule": "COc1cc2nccc(Oc3ccc(NC(=O)C4(C(=O)Nc5ccc(F)cc5)CC4)cc3)c2cc1OC + CC1OCC2(CCN(c3cnc(Sc4ccnc(N)c4Cl)c(N)n3)CC2)C1N", "Unit": "µM", "Result value": 8.23}
{"Molecule": "CC(=O)Nc1cccc(-n2c(=O)n(C3CC3)c(=O)c3c(Nc4ccc(I)cc4F)n(C)c(=O)c(C)c32)c1 + COc1cc2nc(C)nc(NC(C)c3cc(N)cc(C(F)(F)F)c3)c2cc1OC1CCOC1", "Unit": "µM", "Result value": 0.000318}

// query Return reported IC50; argument: CN(C)C/C=C/C(=O)Nc1cc2c(Nc3ccc(F)c(Cl)c3)ncnc2cc1O[C@H]1CCOC1 + CC1OCC2(CCN(c3cnc(Sc4ccnc(N)c4Cl)c(N)n3)CC2)C1N
// result 0.0865

Cited source for all entries: PubChem BioAssay AID1963874
